This collection of values is drawn from patent US20250296960A1.

Target under test: human GLP-1 receptor (GLP-1R), expressed on CHO-K1 cells (human, UniProt P43220 24-463)
Method description: cell-based or functional assay
Numbered stars: 1 amine (or outer) side, 2 acyl side, 3 side chain; on linkers, the order of the positions; unused ones are H or OH. Square brackets hold non-standard residues; d marks the D form. Primed or numbered codes have the meaning given here. Side chains are listed from the residue outwards. Ends that are not written are not given here. * marks the point of attachment. C18 = C18 fatty acid (C16-C22 fatty acids conjugated via γGlu/8-amino-3,6-dioxaoctanoic acid spacers); C18″ = C18 fatty acid moiety (of 2OEG-γGlu-C18, K*); γGlu = O=C(O)[C@H](CCC(=O)[*:2])N[*:1]; AEEA = NCCOCCOCC(=O)O; Aib = CC(C)(N)C(=O)O; MAL = maleimide
Measurement type: Relative % to native ligand (%)
Give the number; % is assumed, so skip it.

Binder | Relative % to native ligand, %
Y[Aib]QGTFTSDK([AEEA-AEEA-γGlu-C18″])SKYLDYMMARDFVQWLIEGGPSSGAPPPS-NH2 [Peptide No. 5-1E] | 57

What value of Relative % to native ligand has been reported for the following binder? H[Aib]QGTFTSDYSKLLDYMMQRDFVQWLLEGGPSSGAPPPSC([MAL-AEEA-AEEA-γGlu-C18])-NH2 [Peptide No. 5-5A]
673

Also Y[Aib]QGTFTSDYSKYLDYMMQRDFVQWLIEGGPSSGAPPPSC-NH2 [Peptide No. 5-2] ?
495
